tested on: VDR homodimer (NR concentration 270 nM); experiment: PBM binding z-score (relative to random genomic background probes); higher = stronger binding; sequences stand for … in GC…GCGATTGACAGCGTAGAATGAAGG
Where PBM binding z-score equals or exceeds 0.06, the correct label is yes; where it does not, the label is no.

CGAACTAGGTCAGAACAGGGCAGTGAAGGATGAT; yes
TTACCAAGGTGAGCTGAGGTAGTTGATCCAACTC; no
CCTACTGGGCCACGAAAGGTCATTGACTCAGTGA; yes
GCAGACAGGTGAAACGCAGGTAACTTAGGGTGGC; no
CAAACTAGATCACAGAGGTCAAAGTCCGTGCGTA; yes

Shift focus to the following entry.
Does PBM binding z-score meet or surpass 0.06 for AGAACGCGGGCACGCTGAGTTGATAGCAGAGTAG ?
yes
